test system: HCT-116, HePG-2, and MCF-7; test: MTT cytotoxicity, summary over the examined cancer cell lines; details: Homo sapiens, read-out: average IC50 versus the examined cell lines
property_name: pIC50
Units for pIC50: none; it is -log10 of a concentration expressed in mol/L.

molecule: CC(=NNC(=O)CN1C(=O)NC(c2ccccc2)(c2ccccc2)C1=O)c1ccc(Cl)cc1 [Compound 10]
property_name: pIC50
numeric_result: 4.88
--
molecule: CC(=NNC(=O)CN1C(=O)NC(c2ccccc2)(c2ccccc2)C1=O)c1ccc(OC(F)(F)F)cc1 [Compound 13]
property_name: pIC50
numeric_result: 4.84

// next entry
## Input Suppose we examine the molecule CC(=NNC(=O)CN1C(=O)NC(c2ccccc2)(c2ccccc2)C1=O)c1cccnc1 [Compound 21] ; what pIC50 value has been reported?
## Output 4.88
